Biological target: Prostaglandin G/H synthase 2 (Homo sapiens)
Sequence (whole entry): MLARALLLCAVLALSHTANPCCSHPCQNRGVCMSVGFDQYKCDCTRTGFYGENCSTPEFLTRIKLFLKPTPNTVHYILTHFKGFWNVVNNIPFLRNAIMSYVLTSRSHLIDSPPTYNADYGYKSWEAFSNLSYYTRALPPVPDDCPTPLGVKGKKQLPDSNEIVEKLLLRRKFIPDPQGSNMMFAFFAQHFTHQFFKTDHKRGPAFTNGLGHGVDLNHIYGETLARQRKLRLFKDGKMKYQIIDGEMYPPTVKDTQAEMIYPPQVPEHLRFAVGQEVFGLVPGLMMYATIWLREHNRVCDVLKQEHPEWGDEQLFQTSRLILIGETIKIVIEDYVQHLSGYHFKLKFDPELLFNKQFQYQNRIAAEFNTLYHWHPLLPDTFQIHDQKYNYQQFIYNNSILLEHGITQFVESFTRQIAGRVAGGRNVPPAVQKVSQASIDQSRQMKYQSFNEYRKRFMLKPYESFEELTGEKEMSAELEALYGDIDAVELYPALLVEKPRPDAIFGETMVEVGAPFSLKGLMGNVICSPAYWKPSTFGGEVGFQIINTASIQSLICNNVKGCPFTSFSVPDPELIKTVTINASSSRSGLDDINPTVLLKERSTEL
Experiment: Inhibition of human recombinant COX2 assessed as residual activity at 30 uM preincubated for 5 mins by measuring 12-HHT level using HPLC method relative to control
Quick reference for Activity among some compounds

- Compound smiles: "CC1(C)Cc2c(-c3ccccc3)c(-c3ccc4ccoc4c3)c(CC(=O)O)n2C1"
  Activity: "75.8%"
- Compound smiles: "CC1(C)Cc2c(-c3ccccc3)c(-c3ccc(Cl)cc3)c(CC(=O)O)n2C1"
  Activity: "53.7%"
- Compound smiles: "Cc1ccc(S(=O)(=O)NC(=O)Cc2c(-c3ccc(Cl)cc3)c(-c3ccccc3)c3n2CC(C)(C)C3)cc1"
  Activity: "13.6%"
- Compound smiles: "CC(C)c1ccc2c(c1)c(SC(C)(C)C)c(CC(C)(C)C(=O)O)n2Cc1ccc(Cl)cc1"
  Activity: "56.7%"

###

Target: Prostaglandin E synthase (Homo sapiens, UniProt O14684)
Sequence (O14684 whole entry): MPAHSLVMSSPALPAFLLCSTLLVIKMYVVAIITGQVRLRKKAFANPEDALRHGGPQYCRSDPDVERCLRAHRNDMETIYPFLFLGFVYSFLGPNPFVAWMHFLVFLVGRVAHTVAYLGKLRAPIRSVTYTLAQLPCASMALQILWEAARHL
Assay: Inhibition of mPGES1 in IL1-beta treated human A549 cell microsomal membrane assessed as residual enzyme activity after 1 min by measuring PGE2 level using RP-HPLC method
Type: microsomes, Microsome
pIC50: −log10 of the molar value.

- Compound: "Cc1ccc(S(=O)(=O)NC(=O)CCc2c(-c3ccc(Cl)cc3)c(-c3ccccc3)c3n2CC(C)(C)C3)cc1"
  pIC50: 5.68
- Compound: "CC1(C)Cc2c(-c3ccccc3)c(-c3ccc(Cl)cc3)c(CCC(=O)O)n2C1"
  pIC50: 5.14
- Compound: "CC1(C)Cc2c(-c3ccccc3)c(-c3ccc(Cl)cc3)c(CC(=O)O)n2C1 [LICOFELONE]"
  pIC50: 5.17
- Compound: "CC1(C)Cc2c(-c3ccccc3)c(-c3ccc(Cl)cc3)c(CC(=O)NS(=O)(=O)c3ccccc3)n2C1"
  pIC50: 5.35
- Compound: "CC1(C)Cc2c(-c3ccccc3)c(-c3ccc(Cl)cc3)c(Cc3nnn[nH]3)n2C1"
  pIC50: 5.41
- Compound: "O=C(O)CCc1c(-c2ccc(Cl)cc2)c(-c2ccccc2)c2n1CCC2"
  pIC50: 5.74
- Compound: "CC1(C)Cc2c(-c3ccccc3)c(-c3ccc4ccoc4c3)c(CC(=O)O)n2C1"
  pIC50: 5.21
- Compound: "Cc1ccc(S(=O)(=O)NC(=O)Cc2c(-c3ccc(Cl)cc3)c(-c3ccccc3)c3n2CC(C)(C)C3)cc1"
  pIC50: 5.32
- Compound: "CCC1(CC)Cc2c(-c3ccccc3)c(-c3ccc(Cl)cc3)c(CC(=O)NS(C)(=O)=O)n2C1"
  pIC50: 5.23

###

Biological target: Prostaglandin G/H synthase 1 (Ovis aries) (UniProt P05979)
Sequence (whole entry): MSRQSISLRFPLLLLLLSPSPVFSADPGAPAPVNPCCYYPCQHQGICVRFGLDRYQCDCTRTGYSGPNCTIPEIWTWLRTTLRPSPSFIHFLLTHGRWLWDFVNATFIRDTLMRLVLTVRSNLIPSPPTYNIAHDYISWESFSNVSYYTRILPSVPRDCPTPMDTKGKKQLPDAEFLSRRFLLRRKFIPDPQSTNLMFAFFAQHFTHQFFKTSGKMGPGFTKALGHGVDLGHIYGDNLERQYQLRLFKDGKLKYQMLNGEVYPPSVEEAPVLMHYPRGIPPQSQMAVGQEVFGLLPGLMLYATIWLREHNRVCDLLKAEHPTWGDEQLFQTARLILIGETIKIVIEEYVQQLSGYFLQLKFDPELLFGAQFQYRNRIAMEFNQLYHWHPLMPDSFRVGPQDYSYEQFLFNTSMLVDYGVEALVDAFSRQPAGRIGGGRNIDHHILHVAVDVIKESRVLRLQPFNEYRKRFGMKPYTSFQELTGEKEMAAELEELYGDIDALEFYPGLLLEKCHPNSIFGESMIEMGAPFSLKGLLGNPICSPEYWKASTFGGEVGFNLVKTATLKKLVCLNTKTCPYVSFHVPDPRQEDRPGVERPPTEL
Assay: Inhibition of ovine COX1 assessed as residual enzyme activity at 30 uM preincubated for 5 mins by measuring 12-HHT level using HPLC method relative to control
Experimental endpoint: Activity

- Compound: "CC1(C)Cc2c(-c3ccccc3)c(-c3ccc4ccoc4c3)c(CC(=O)O)n2C1"
  Measured result: "94%"
- Compound: "CC1(C)Cc2c(-c3ccccc3)c(-c3ccc(Cl)cc3)c(CCC(=O)O)n2C1"
  Measured result: "82.9%"
- Compound: "Cc1ccc(S(=O)(=O)NC(=O)CCc2c(-c3ccc(Cl)cc3)c(-c3ccccc3)c3n2CC(C)(C)C3)cc1"
  Measured result: "29.2%"
- Compound: "CC1(C)Cc2c(-c3ccccc3)c(-c3ccc(Cl)cc3)c(CC(=O)O)n2C1 [LICOFELONE]"
  Measured result: "12.4%"
- Compound: "CC(C)c1ccc2c(c1)c(SC(C)(C)C)c(CC(C)(C)C(=O)O)n2Cc1ccc(Cl)cc1"
  Measured result: "19.5%"
- Compound: "Cc1ccc(S(=O)(=O)NC(=O)Cc2c(-c3ccc(Cl)cc3)c(-c3ccccc3)c3n2CC(C)(C)C3)cc1"
  Measured result: "8.6%"
- Compound: "CC1(C)Cc2c(-c3ccccc3)c(-c3ccc(Cl)cc3)c(Cc3nnn[nH]3)n2C1"
  Measured result: "37.4%"
- Compound: "CC1(C)Cc2c(-c3ccccc3)c(-c3ccc(Cl)cc3)c(CC(=O)NS(=O)(=O)c3ccccc3)n2C1"
  Measured result: "25.8%"

###

Molecular target: UniProt:O14684
Sequence (whole entry): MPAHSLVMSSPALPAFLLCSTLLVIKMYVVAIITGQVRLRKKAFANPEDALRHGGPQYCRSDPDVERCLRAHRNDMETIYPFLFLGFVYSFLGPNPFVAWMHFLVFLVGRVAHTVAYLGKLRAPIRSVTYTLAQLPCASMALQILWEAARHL
Test: Inhibition of mPGES1 in IL1-beta treated human A549 cell microsomal membrane assessed as residual enzyme activity at 10 uM after 1 min by measuring PGE2 level using RP-HPLC method relative to control
Type: microsomes
Conditions: Microsome
Experimental endpoint: Activity (%)

- Compound smiles: "CC1(C)Cc2c(-c3ccccc3)c(-c3ccc([N+](=O)[O-])cc3)c(CC(=O)O)n2C1"
  Tested system: "UniProt:O14684"
  Measured result: 58.8
- Compound smiles: "O=C(O)Cc1c(-c2ccc(Cl)cc2)c(-c2ccccc2)c2n1CCC2"
  Tested system: "UniProt:O14684"
  Measured result: 65.3
- Compound smiles: "Cc1ccc(S(=O)(=O)NC(=O)CCc2c(-c3ccc(Cl)cc3)c(-c3ccccc3)c3n2CC(C)(C)C3)cc1"
  Tested system: "UniProt:O14684"
  Measured result: 23.2
- Compound smiles: "CC1(C)Cc2c(-c3ccccc3)c(-c3ccc(Cl)cc3)c(CC(=O)NS(C)(=O)=O)n2C1"
  Tested system: "UniProt:O14684"
  Measured result: 63.1
- Compound smiles: "CC1(C)Cc2c(-c3ccccc3)c(-c3ccc(C(F)(F)F)cc3)c(CC(=O)O)n2C1"
  Tested system: "UniProt:O14684"
  Measured result: 56.1
- Compound smiles: "CC1(C)Cc2c(-c3ccccc3)c(-c3ccc(C(C)(C)C)cc3)c(CC(=O)O)n2C1"
  Tested system: "UniProt:O14684"
  Measured result: 53.8
- Compound smiles: "CC1(C)Cc2c(-c3ccccc3)c(-c3ccc4ccoc4c3)c(CC(=O)O)n2C1"
  Tested system: "UniProt:O14684"
  Measured result: 42.1
- Compound smiles: "CC1(C)Cc2c(-c3ccccc3)c(-c3ccc(Cl)cc3)c(Cc3nnn[nH]3)n2C1"
  Tested system: "UniProt:O14684"
  Measured result: 27.9
- Compound smiles: "CC1(C)Cc2c(-c3ccccc3)c(-c3ccc(Cl)cc3)c(CC(=O)NS(=O)(=O)c3ccccc3)n2C1"
  Tested system: "UniProt:O14684"
  Measured result: 28.7
- Compound smiles: "O=C(O)CCc1c(-c2ccc(Cl)cc2)c(-c2ccccc2)c2n1CCC2"
  Tested system: "UniProt:O14684"
  Measured result: 20.8
- Compound smiles: "CC(C)c1ccc2c(c1)c(SC(C)(C)C)c(CC(C)(C)C(=O)O)n2Cc1ccc(Cl)cc1"
  Tested system: "UniProt:O14684"
  Measured result: 22.5
